These data points were gathered from ChEMBL document CHEMBL1614632.

Assay: clinical
Settings: human, in vivo, iv
PARAMETER_MEASURED: fraction unbound

CC(=O)O[C@@]12CO[C@@H]1C[C@H](O)[C@@]1(C)C(=O)[C@H](O)C3=C(C)[C@@H](OC(=O)[C@H](O)[C@@H](NC(=O)OC(C)(C)C)c4ccccc4)C[C@@](O)([C@@H](OC(=O)c4ccccc4)[C@H]21)C3(C)C.O.O.O [DOCETAXEL]	0.04
CC1(C)S[C@@H]2[C@H](NC(=O)Cc3ccccc3)C(=O)N2[C@H]1C(=O)O [PENICILLIN G]	0.4
C#C[C@]1(O)CC[C@H]2[C@@H]3CCc4cc(O)ccc4[C@H]3CC[C@@]21C [ETHINYL ESTRADIOL]	0.014

State recorded fraction unbound for all listed compounds.
1. C[C@@H]1CC(=O)NN=C1c1ccc(NN=C(C#N)C#N)cc1 [LEVOSIMENDAN]
2. CCCCC(=O)N(Cc1ccc(-c2ccccc2-c2nnn[nH]2)cc1)[C@H](C(=O)O)C(C)C
3. CC(=O)O[C@H]1C(=O)[C@@]2(C)[C@H]([C@H](OC(=O)c3ccccc3)[C@]3(O)C[C@H](OC(=O)[C@H](O)[C@@H](NC(=O)c4ccccc4)c4ccccc4)C(C)=C1C3(C)C)[C@]1(OC(C)=O)CO[C@@H]1C[C@@H]2O [PACLITAXEL]

A:
0.02
0.04
0.12

----------
Provide the recorded MRT for the entries that follow.
Assay: clinical
Settings: human, in vivo, iv
Put your answer as a value accompanied by its unit after it.

CC(C)[C@H]1CC[C@H](C(=O)N[C@H](Cc2ccccc2)C(=O)O)CC1 [NATEGLINIDE]	1.4 h
CCC1CN2CCC1CC2[C@@H](O)c1ccnc2ccc(OC)cc12 (stereo not given in full) [DIHYDROQUINIDINE]	11 h
COc1ccc(C(CN(C)C)C2(O)CCCCC2)cc1 (stereo not given) [VENLAFAXINE]	5.2 h
CC(=O)O[C@H]1C[C@@H]2CC[C@@H]3[C@H](CC[C@@]4(C)[C@H]3C[C@H]([N+]3(C)CCCCC3)[C@@H]4OC(C)=O)[C@@]2(C)C[C@@H]1[N+]1(C)CCCCC1 [PANCURONIUM]	2.2 h

State recorded MRT for all listed compounds.
1. O=C1c2cccc3c2[C@H](CCC3)CN1[C@@H]1CN2CCC1CC2 [PALONOSETRON]
2. O=C(CCCN1CCC(O)(c2ccc(Cl)cc2)CC1)c1ccc(F)cc1 [HALOPERIDOL]
3. CC(C(=O)O)c1cccc(C(=O)c2ccccc2)c1 (stereo not given) [KETOPROFEN]

A:
1: 40 h; 2: 36 h; 3: 1.4 h

State recorded MRT for all listed compounds.
1. CCCC(=O)OCOC(=O)C1=C(C)NC(C)=C(C(=O)OC)C1c1cccc(Cl)c1Cl (stereo not given) [CLEVIDIPINE]
2. C[C@@H]1O[C@@H]1P(=O)(O)O [FOSFOMYCIN]
3. CC(Oc1ccccc1)C(=O)N[C@@H]1C(=O)N2[C@@H]1SC(C)(C)[C@@H]2C(=O)O (stereo not given in full) [PHENETHICILLIN]
4. CO[C@H]1C[C@@H]2CC[C@@H](C)[C@@](O)(O2)C(=O)C(=O)N2CCCC[C@H]2C(=O)O[C@H]([C@H](C)C[C@@H]2CC[C@@H](OC(=O)C(C)(CO)CO)[C@H](OC)C2)CC(=O)[C@H](C)/C=C(\C)[C@@H](O)[C@@H](OC)C(=O)[C@H](C)C[C@H](C)/C=C/C=C/C=C/1C [TEMSIROLIMUS]
5. CN1CCN(C(=O)OC2c3nccnc3C(=O)N2c2ccc(Cl)cn2)CC1 (stereo not given) [ZOPICLONE]
6. CNCCCC12CCC(c3ccccc31)c1ccccc12 [MAPROTILINE]
7. CCN[C@@H]1C[C@H](N)[C@@H](O[C@H]2OC(CN)=CC[C@H]2N)[C@H](O)[C@H]1O[C@H]1OC[C@](C)(O)[C@H](NC)[C@H]1O [NETILMICIN]
8. CC(=O)CC(c1ccccc1)c1c(O)c2ccccc2oc1=O (stereo not given) [WARFARIN]

A:
["0.07 h", "2.7 h", "1.2 h", "10 h", "6.6 h", "54 h", "2.2 h", "39 h"]
